Quick list: melting point per entry.

### Prompt Value lookup for melting point; key = `COc1nc(N)nc2c1sc(=O)n2[C@@H]1O[C@H](CO)[C@@H](O)[C@H]1O`
### Response > 160 °C (dec.)

* * *

Where a name gives a salt, the structure may show the parent alone.
recorded.endpoint: melting point

• CNc1nc(N)nc2c1sc(=O)n2[C@@H]1O[C@H](CO)[C@@H](O)[C@H]1O = > 108 °C
• Nc1nc(NC2CCCC2)c2sc(=O)n([C@@H]3O[C@H](CO)[C@@H](O)[C@H]3O)c2n1 = > 108 °C (dec.)
• Nc1nc(N)c2sc(=O)n([C@@H]3O[C@H](CO)[C@@H](O)[C@H]3O)c2n1 = > 155 °C (dec.)
• CN[C@H](C(=O)OC[C@H]1O[C@@H](n2c(=O)sc3c(O)nc(N)nc32)[C@H](O)[C@@H]1O)C(C)C (as salt: hydrochloride) = > 180 °C (dec.)
• Nc1ncc2sc(=O)n([C@@H]3O[C@H](CO)[C@@H](O)[C@H]3O)c2n1 = 220 °C (dec.)

### Prompt Value lookup for melting point; key = `Nc1nc(N2CCCC2)c2sc(=O)n([C@@H]3O[C@H](CO)[C@@H](O)[C@H]3O)c2n1`
### Response > 112.4 °C (dec.)

### Prompt Another: CC(C)[C@H](N)C(=O)OC[C@H]1O[C@@H](n2c(=O)sc3c(O)nc(N)nc32)[C@H](O)[C@@H]1O (as salt: hydrochloride) [Compound 3, Dihydrochloride]
### Response 166 to 168 °C (dec.)

### Prompt Another: `CN(C)c1nc(N)nc2c1sc(=O)n2[C@@H]1O[C@H](CO)[C@@H](O)[C@H]1O`
### Response > 112 °C
